- Tested on: Oryza sativa
- Assay summary: Phytotoxicity against Oryza sativa (rice) assessed as inhibition of root elongation after 7 days relative to control
- Format: organism-based
- Settings: 168 h
Property name: IC50 (µM)
Note: unit µM is implicit; provide only the numeric part.

*Q* Note down IC50 recorded for O=C1C(c2ccccc2)Oc2ccc(F)cc2N1O (stereo not given)
*A* 1240

*Q* Note down IC50 recorded for O=C1C(c2ccccc2)Oc2c(Cl)cccc2N1O (stereo not given)
*A* 384

*Q* Note down IC50 recorded for CCCC1Oc2ccc(Cl)cc2N(O)C1=O (stereo not given)
*A* 156

*Q* Note down IC50 recorded for "CCC(=O)ON1C(=O)COc2ccc(F)cc21"
*A* 3

*Q* Note down IC50 recorded for CCC1Oc2c(Cl)cccc2N(O)C1=O (stereo not given)
*A* 305

*Q* Note down IC50 recorded for "CCC(=O)ON1C(=O)COc2c(Cl)cccc21"
*A* 859

*Q* Note down IC50 recorded for CCC1Oc2ccc(F)cc2N(O)C1=O (stereo not given)
*A* 15

*Q* Note down IC50 recorded for "CCCCC(=O)ON1C(=O)COc2ccc(F)cc21"
*A* 6

*Q* Note down IC50 recorded for O=C1C(c2ccccc2)Oc2ccc(Cl)cc2N1O (stereo not given)
*A* 992

*Q* Note down IC50 recorded for "CCCCC(=O)ON1C(=O)COc2ccc(Cl)cc21"
*A* 2

*Q* Note down IC50 recorded for CCCC1Oc2c(Cl)cccc2N(O)C1=O (stereo not given)
*A* 614

*Q* Note down IC50 recorded for CCC1Oc2ccc(Cl)cc2N(O)C1=O (stereo not given)
*A* 56

*Q* Note down IC50 recorded for "CCC(=O)ON1C(=O)COc2ccc(Cl)cc21"
*A* 3

*Q* Note down IC50 recorded for CCCC1Oc2ccc(F)cc2N(O)C1=O (stereo not given)
*A* 337

*Q* Note down IC50 recorded for "CCCCC(=O)ON1C(=O)COc2c(Cl)cccc21"
*A* 712

---

- Assay summary: Selectivity idex, ratio of IC50 for root elongation in Triticum aestivum to IC50 for root elongation in Avena fatua
Property name: Ratio IC50

*Q* Note down Ratio IC50 recorded for CCCC1Oc2c(Cl)cccc2N(O)C1=O (stereo not given)
*A* 5.37

*Q* Note down Ratio IC50 recorded for CCCC1Oc2ccc(Cl)cc2N(O)C1=O (stereo not given)
*A* 3.82

*Q* Note down Ratio IC50 recorded for "CCC(=O)ON1C(=O)COc2ccc(Cl)cc21"
*A* 2.42

*Q* Note down Ratio IC50 recorded for O=C1C(c2ccccc2)Oc2c(Cl)cccc2N1O (stereo not given)
*A* 1.75

*Q* Note down Ratio IC50 recorded for "CCCCC(=O)ON1C(=O)COc2c(Cl)cccc21"
*A* 14.4

---

- Assay summary: Selectivity idex, ratio of IC50 for root elongation in Triticum aestivum to IC50 for root elongation in Avena fatua
Please respond with reported Ratio IC50 for every item in the list.
Kindly provide the number alone.

*Q* Note down Ratio IC50 recorded for CCC(=O)ON1C(=O)COc2ccc(F)cc21 [6F-4Pr-D-DIBOA]
*A* 13.2

*Q* Note down Ratio IC50 recorded for CCCCC(=O)ON1C(=O)COc2ccc(F)cc21 [6-F-4-Val-D-DIBOA]
*A* 8.92

*Q* Note down Ratio IC50 recorded for CCCCC(=O)ON1C(=O)COc2ccc(Cl)cc21 [6-Cl-4-Val-D-DIBOA]
*A* 7.52

*Q* Note down Ratio IC50 recorded for CCC1Oc2ccc(Cl)cc2N(O)C1=O [6-Cl-2-Et-D-DIBOA]
*A* 0.28

*Q* Note down Ratio IC50 recorded for O=C1C(c2ccccc2)Oc2ccc(F)cc2N1O [6-F-2-Ph-D-DIBOA]
*A* 3.65

*Q* Note down Ratio IC50 recorded for CCCC1Oc2ccc(F)cc2N(O)C1=O (stereo not given)
*A* 4.78

*Q* Note down Ratio IC50 recorded for CCC1Oc2c(Cl)cccc2N(O)C1=O [8-Cl-2-Et-D-DIBOA]
*A* 2.25

*Q* Note down Ratio IC50 recorded for CCC(=O)ON1C(=O)COc2c(Cl)cccc21 [8-Cl-4-Pr-D-DIBOA]
*A* 4.06

*Q* Note down Ratio IC50 recorded for O=C1C(c2ccccc2)Oc2ccc(Cl)cc2N1O [6-Cl-2-Ph-D-DIBOA]
*A* 3.51

*Q* Note down Ratio IC50 recorded for CCC1Oc2ccc(F)cc2N(O)C1=O [6-F-2-Et-D-DIBOA]
*A* 2.59

---

- System: Avena fatua
- Assay summary: Herbicidal activity against Avena fatua assessed as inhibition of root length after 5 days relative to control
- Assay type: functional, organism-based
- Settings: 120 h
Property name: log10 IC50 (log10 of the value in µM)
Base-10 log of IC50, unit µM.

*Q* Note down log10 IC50 recorded for CCCC1Oc2c(Cl)cccc2N(O)C1=O (stereo unspecified)
*A* 1.86

*Q* Note down log10 IC50 recorded for CCC1Oc2c(Cl)cccc2N(O)C1=O (stereo unspecified)
*A* 2.19

*Q* Note down log10 IC50 recorded for "CCC(=O)ON1C(=O)COc2c(Cl)cccc21"
*A* 2.51

*Q* Note down log10 IC50 recorded for CCC1Oc2ccc(F)cc2N(O)C1=O (stereo unspecified)
*A* 1.39

*Q* Note down log10 IC50 recorded for O=C1C(c2ccccc2)Oc2c(Cl)cccc2N1O (stereo unspecified)
*A* 2.18

*Q* Note down log10 IC50 recorded for CCCC1Oc2ccc(F)cc2N(O)C1=O (stereo unspecified)
*A* 2.20

*Q* Note down log10 IC50 recorded for "CCC(=O)ON1C(=O)COc2ccc(F)cc21"
*A* 0.79

*Q* Note down log10 IC50 recorded for "CCCCC(=O)ON1C(=O)COc2ccc(F)cc21"
*A* 0.81

*Q* Note down log10 IC50 recorded for O=C1C(c2ccccc2)Oc2ccc(F)cc2N1O (stereo unspecified)
*A* 2.25

*Q* Note down log10 IC50 recorded for "CCC(=O)ON1C(=O)COc2ccc(Cl)cc21"
*A* 1.29

*Q* Note down log10 IC50 recorded for "CCCCC(=O)ON1C(=O)COc2ccc(Cl)cc21"
*A* 0.55

---

- Test system: Avena fatua
- Assay summary: Herbicidal activity against Avena fatua assessed as inhibition of root length after 5 days relative to control
- Format: functional, organism-based
- Settings: 120 h
Please respond with reported pIC50 for every item in the list.
By convention, pIC50 is the negative base-10 log of a molar concentration.

*Q* Note down pIC50 recorded for O=C1C(c2ccccc2)Oc2ccc(Cl)cc2N1O (centres undefined)
*A* 3.71

*Q* Note down pIC50 recorded for CCC1Oc2ccc(Cl)cc2N(O)C1=O (centres undefined)
*A* 3.33

*Q* Note down pIC50 recorded for "CCCCC(=O)ON1C(=O)COc2c(Cl)cccc21"
*A* 3.94

*Q* Note down pIC50 recorded for CCCC1Oc2ccc(Cl)cc2N(O)C1=O (centres undefined)
*A* 3.91

---

- Assay summary: Phytotoxicity against Triticum aestivum (wheat) assessed as inhibition of root elongation at 114 uM after 5 days relative to control
- Type: organism-based
- Settings: in vivo
Property name: inhibition at 120 h, 114 µM (%)
Note: unit % is implicit; provide only the numeric part.

*Q* Note down inhibition at 120 h, 114 µM recorded for "CCCCC(=O)ON1C(=O)COc2c(Cl)cccc21"
*A* 18

Each recorded value in this set is attributed to ChEMBL document CHEMBL3046390.
